Can you tell me solubility thermodynamic for the items I'm about to list?
# PROTOCOL DETAILS: Solubility determination in oil (Table 10)
# DETAILS: 40 °C, water, thermodynamic from solid, Equilibrium solubility: Water, Heating Temp. 40 °C, Obs. Temp. 40 °C

Which measured solubility thermodynamic value corresponds to "C=C1CC[C@@]2(O)C3Cc4ccc(OC(=O)CCCCCCCCCCCCCCCCCCCCC)c5c4[C@@]2(CCN3CC2CC2)[C@H]1O5" ? 10 µg/mL

Query: solubility thermodynamic; subject: "C=C1CC[C@@]2(O)C3Cc4ccc(OC(=O)OCCCCCCCCCC)c5c4[C@@]2(CCN3CC2CC2)[C@H]1O5" < 0.2 µg/mL

Query: solubility thermodynamic; subject: "C=C1CC[C@@]2(O)C3Cc4ccc(OC(=O)CCCCCCC/C=C\C/C=C\CCCCC)c5c4[C@@]2(CCN3CC2CC2)[C@H]1O5" 2 µg/mL

solubility thermodynamic lookup needed for "C=C1CC[C@@]2(O)C3Cc4ccc(OCOC(=O)CCCCCCCCCCC)c5c4[C@@]2(CCN3CC2CC2)[C@H]1O5" , thanks. < 1 µg/mL

Give the measured solubility thermodynamic of "CCCCCCCCCCCCCCCCCC(=O)Oc1ccc2c3c1O[C@H]1C(=O)CC[C@@]4(O)C(C2)N(CC2CC2)CC[C@]314" . < 1 µg/mL

Find the recorded solubility thermodynamic belonging to "C=C1CC[C@@]2(O)C3Cc4ccc(OC(=O)CCC5CCCC5)c5c4[C@@]2(CCN3CC2CC2)[C@H]1O5" and report it. 18 µg/mL

# input compound: "CCCCCCCCCCCC(=O)OCOc1ccc2c3c1O[C@H]1C(=O)CC[C@@]4(O)C(C2)N(CC2CC2)CC[C@]314" ; wanted: its solubility thermodynamic 3 µg/mL

I'd like to know its solubility thermodynamic. The compound in question is "CCCCCCCCCCCCCCCCCCCCCC(=O)Oc1ccc2c3c1O[C@H]1C(=O)CC[C@@]4(O)C(C2)N(CC2CC2)CC[C@]314" < 1 µg/mL

Which solubility thermodynamic is listed for "C=C1CC[C@@]2(O)C3Cc4ccc(OC(=O)OCCCCCCCCCCCCCCCCCCCC)c5c4[C@@]2(CCN3CC2CC2)[C@H]1O5" ? < 1 µg/mL

Can you look up the measured solubility thermodynamic of "C=C1CC[C@@]2(O)C3Cc4ccc(OC(=O)OCCCCCCCCCCCCCC)c5c4[C@@]2(CCN3CC2CC2)[C@H]1O5" for me? < 1 µg/mL

----------
# PROTOCOL DETAILS: Dog pharmacokinetic studies, deep intramuscular administration
# Assay type: in vivo, Beagle dogs
# DETAILS: Beagle, dog, plasma, im, 48 mg/kg, IM 48 mg/kg (shallow), Cottonseed + 1% Benzyl Alcohol; read-out: Half-life t1/2 (hour) prodrug (converted)
QUANTITY NAME: half-life
Give your result as the value with the unit written after it.

// half-life lookup, key: C=C1CC[C@@]2(O)C3Cc4ccc(OCOC(=O)OCCCCCCCCCCCC)c5c4[C@@]2(CCN3CC2CC2)[C@H]1O5 [Compound 24] 102 h

----------
# PROTOCOL DETAILS: Dog pharmacokinetic studies, deep intramuscular administration
# Assay type: in vivo, Beagle dogs
# DETAILS: Beagle, dog, plasma, im, 48 mg/kg, IM 48 mg/kg (deep), Sesame oil + 1% Benzyl Alcohol; read-out: Half-life t1/2 (hour) prodrug (converted)
QUANTITY NAME: half-life (h)
Return type: number; implicit unit h.

Fill in the blank: the reported half-life of "C=C1CC[C@@]2(O)C3Cc4ccc(OC(=O)OCCCCCCCCCCCC)c5c4[C@@]2(CCN3CC2CC2)[C@H]1O5" is ____. 54
